Reference source for all entries: patent US12679840B2

Assay: Solubility study of Form A in buffers, water and biorelevant media (suspension shaken 24 hours at 25° C., filtrate by UPLC)
Type: physicochemical
Details: SGF without Triton-X100, 25 °C, simulated gastric fluid, thermodynamic from solid, SGF without Triton-X100, about 24 hours, mean of three replicates
readout: solubility at 24 h

In [3]: df
Out[3]:
                                   compound             readout         result
0  Cc1cc(N2CC3CCC(C2)C3Nc2nc3n(n2)CCCC[C@H]3c2ccc(F)c(F)c2F)ncn1 (stereo partly shown) [Form A]  solubility at 24 h  > 10000 µg/mL
